Test system: Clone V cells
Conditions: human, 16 h, 30 µM
Counter-ions that a name gives are not always drawn.
What Toxicity Assay Z-score was measured for each of the following?

Please review the following examples before continuing.
C=CC[C@@H]1/C=C(\C)C[C@H](C)C[C@H](OC)[C@H]2O[C@@](O)(C(=O)C(=O)N3CCCC[C@H]3C(=O)O[C@H](/C(C)=C/[C@@H]3CC[C@@H](O)[C@H](OC)C3)[C@H](C)[C@@H](O)CC1=O)[C@H](C)C[C@@H]2OC
1.82
C=CC(=O)Nc1cc2c(Nc3ccc(F)c(Cl)c3)ncnc2cc1OCCCN1CCOCC1
-2.22
NC(=O)c1ccc(I)c([N+](=O)[O-])c1
-0.85

Quick request: Toxicity Assay Z-score for each listed item, please.
1. O=c1cc(-c2cccc3c2Sc2ccccc2S3)oc(N2CCOCC2)c1
2. CCn1c(-c2nonc2N)nc2cnc(Oc3cccc(NC(=O)c4ccc(OCCN5CCOCC5)cc4)c3)cc21 [GSK 269962A]

# output
1. -1.51
2. 0.20

# input Requested read-out: Toxicity Assay Z-score. Entry: CC[C@]1(O)C[C@H]2CN(CCc3c([nH]c4ccccc34)[C@@](C(=O)OC)(c3cc4c(cc3OC)N(C=O)[C@H]3[C@@](O)(C(=O)OC)[C@H](OC(C)=O)[C@]5(CC)C=CCN6CC[C@]43[C@@H]65)C2)C1 [Vincristine sulfate]
# output -0.20

---

Target: FGF14:Nav1.6 C-tail complex (Homo sapiens, UniProt Q92915+Q9UQD0)
Construct: polymerase chain reaction (PCR) amplification of the FGF14 open reading frame (nt 1–855); C-terminal fragment of Nav1.6 (amino acids 1763–1976) fused with CD4ΔC-tail (amino acids 1–395); expressed in transfected cells
Sequence (Q92915 1-252 isoform Q92915-2): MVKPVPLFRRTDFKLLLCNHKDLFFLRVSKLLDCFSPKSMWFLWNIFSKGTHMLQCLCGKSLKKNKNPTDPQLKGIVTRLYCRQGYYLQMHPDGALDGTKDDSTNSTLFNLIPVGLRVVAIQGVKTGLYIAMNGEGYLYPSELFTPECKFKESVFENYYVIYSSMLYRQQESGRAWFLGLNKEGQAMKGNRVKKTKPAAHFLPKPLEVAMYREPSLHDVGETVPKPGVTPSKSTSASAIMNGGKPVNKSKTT
Sequence (Q9UQD0 1763-1976 limits assumed): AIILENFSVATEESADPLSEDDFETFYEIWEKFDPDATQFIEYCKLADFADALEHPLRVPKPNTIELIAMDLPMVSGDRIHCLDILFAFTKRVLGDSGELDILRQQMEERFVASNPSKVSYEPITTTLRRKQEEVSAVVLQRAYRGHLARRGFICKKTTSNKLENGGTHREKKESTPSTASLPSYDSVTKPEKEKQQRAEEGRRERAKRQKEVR
Experiment: Split-luciferase complementation assay (LCA) in Clone V double stable HEK293 cells
Type: cell-based
Details: CC_NCI screening; LCA luminescence, biological replicate Set 2; normalized to on-plate 0.3% DMSO controls (n=16 per plate)
What Split Luciferase Assay %Lum Set 2 was measured for each of the following?
Answer as a quantity: numeral, then unit.

COc1cc2c(cc1OC)[C@@H]1C(=O)c3ccc4c(c3O[C@@H]1CO2)C=CC(C)(C)O4
26.01%
O=S(=O)(NCCNC/C=C/c1ccc(Br)cc1)c1cccc2cnccc12 [H-89, reference compound]
17.69%
Nc1nc(F)nc2c1ncn2[C@@H]1O[C@H](COP(=O)(O)O)[C@@H](O)[C@@H]1O [Fludarabine phosphate]
119.64%

Quick request: Split Luciferase Assay %Lum Set 2 for each listed item, please.
1. C[C@@H](N)[C@H]1CC[C@H](C(=O)Nc2ccncc2)CC1
2. O=C(/C=C/c1cccc(S(=O)(=O)Nc2ccccc2)c1)NO
3. COc1cc(Nc2c(C#N)cnc3cc(OCCCN4CCN(C)CC4)c(OC)cc23)c(Cl)cc1Cl [Bosutinib]
4. COC1=C2C[C@@H](C)C[C@H](OC)[C@H](O)[C@@H](C)/C=C(\C)[C@H](OC(N)=O)[C@@H](OC)/C=C\C=C(/C)C(=O)NC(=CC1=O)C2=O
5. CN(N=O)C(=O)N[C@@H](C=O)[C@@H](O)[C@H](O)[C@H](O)CO
6. COc1cc2ncnc(Nc3cccc(Br)c3)c2cc1OC

# output
74.90%
106.11%
17.69%
86.35%
124.84%
121.72%

Quick request: Split Luciferase Assay %Lum Set 2 for each listed item, please.
1. CN(NC(=O)CC(=O)NN(C)C(=S)c1ccccc1)C(=S)c1ccccc1
2. CCNC(=O)c1noc(-c2cc(C(C)C)c(O)cc2O)c1-c1ccc(CN2CCOCC2)cc1
3. Cc1cc2c(F)c(Oc3ncnn4cc(OC[C@@H](C)O)c(C)c34)ccc2[nH]1
4. CS(=O)(=O)CCNCc1ccc(-c2ccc3ncnc(Nc4ccc(OCc5cccc(F)c5)c(Cl)c4)c3c2)o1
5. CNC(=O)c1ccccc1Sc1ccc2c(/C=C/c3ccccn3)n[nH]c2c1 [Axitinib]
6. CNCc1ccc(-c2[nH]c3cc(F)cc4c3c2CCNC4=O)cc1
7. COc1cccc(-c2cc(=O)c3ccccc3o2)c1N
8. O=c1cc(-c2cccc3c2Sc2ccccc2S3)oc(N2CCOCC2)c1

# output
["35.37%", "50.98%", "35.37%", "95.71%", "31.21%", "67.62%", "106.11%", "81.14%"]

The reported measurements were obtained from paper PMC6858373.
